Test: chemical genetic growth profiling, strain panel (AID 1159580);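 note: tested at 20 µM; growth read once vehicle control cultures reached saturation at 30 °C; 1 = growth at the plate median or of vehicle wells; lower values mean less growth of the strain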
Settings: S. cerevisiae deletion strains, growth OD, locus YPR163C, strain tif3, active compounds read low
Screen size: about 5,500 compounds; about 2,000 (36%) were called active. Inconclusive results (about 18%) are left out. Some of the results follow. Where a SMILES comes first, the peptide text is derived from it. The star is where a group is joined. For = O=C*
property_label: normalized growth
Give bare numbers.

Before answering, review these 8 worked examples.
>  <molecule>
CC(C)(C#N)O[C@@H]1O[C@H](CO)[C@@H](O)[C@H](O)[C@H]1O

>  <number>
0.997

$$$$
>  <molecule>
CSCCC(NC=O)C(=O)NC(Cc1ccccc1)C(=O)O (stereo not drawn) (For-Met-Phe-OH; configuration not given here)

>  <number>
1.01

$$$$
>  <molecule>
OC(CCN1CCCCC1)(c1ccccc1)C1CCCCC1 (stereo unspecified)

>  <number>
0.988

$$$$
>  <molecule>
COc1ccc2c(c1)c(CC(=O)O)c(C)n2C(=O)c1ccc(Cl)cc1

>  <number>
0.981

$$$$
>  <molecule>
CC(=O)NC(C(=O)O)C(C)(C)SN=O (stereo unspecified)

>  <number>
0.986

$$$$
>  <molecule>
Nc1ccc(S(=O)(=O)c2ccc(N)cc2)cc1

>  <number>
1.01

$$$$
>  <molecule>
CO[C@@]12[C@@H]3NC3CN1C1=C(C(=O)C(N)=C(C)C1=O)[C@@H]2COC(N)=O (stereo partly specified)

>  <number>
0.966

$$$$
>  <molecule>
OC(CCN1CCCC1)(c1ccccc1)C1CCCCC1 (stereo unspecified)

>  <number>
0.974

$$$$

Hi, could you look up normalized growth for each item in my list?
1. Cc1cc(O)c2c(c1)Cc1cccc(O)c1C2=O
2. Cc1ccnc(NS(=O)(=O)c2ccc(N)cc2)n1
3. COc1ccc2c(c1)c(CC(=O)OCC(=O)O)c(C)n2C(=O)c1ccc(Cl)cc1

A:
1: 0.982; 2: 1.03; 3: 1.02
